Assay: Liver Microsome stability (In Vitro Metabolism)
Assay type: in vitro ADME
Conditions: Monkey liver microsomes
Protocol: Working Compound solution: 10 uM in 50 mM potassium phosphate buffer with 9% MeOH and 1% DMSO Microsome solution: working concentration 0.625 mg/ml Stopping solution: Cold ACN with 200 ng/ml Tolbutamide and 200 ng/ml Labetalol (4° C.) Procedure: In the well plates (T5, T10, T20, T30, T60, NCF60 (no cofactor 60)) 10 uL of the compound/control working solution was added (except T0 and matric blank) followed by microsome solution (80 uL) and the mixture was incubated at 37 C for about 10 mins. […]
recorded-endpoint: microsomal CLint at 1 µM

Report microsomal CLint at 1 µM for C[C@@H]1[C@H](O)[C@@H](C)/C=C/C=C/C=C/C=C/C=C/C=C/C=C/[C@H](OC2O[C@H](C)[C@@H](O)[C@H](N)[C@@H]2O)C[C@@H]2O[C@](O)(C[C@@H](O)C[C@@H](O)[C@H](O)CC[C@@H](O)C[C@@H](O)CC(=O)O[C@H]1C)C[C@H](O)[C@H]2C(=O)O (stereo partly shown) [AmB, Amphotericin B] please.
< 9.6 µL/min/mg

====

experiment: Liver Microsome stability (In Vitro Metabolism); type: in vitro ADME; conditions: Monkey liver microsomes
recorded-endpoint: CLint scaled at 1 µM

Quick check: CLint scaled at 1 µM of C[C@@H]1[C@H](O)[C@@H](C)/C=C/C=C/C=C/C=C/C=C/C=C/C=C/[C@H](OC2O[C@H](C)[C@@H](O)[C@H](N)[C@@H]2O)C[C@@H]2O[C@](O)(C[C@@H](O)C[C@@H](O)[C@H](O)CC[C@@H](O)C[C@@H](O)CC(=O)O[C@H]1C)C[C@H](O)[C@H]2C(=O)O (stereo partly shown) ?
< 13 mL/min/kg

====

assay: Plasma Stability; type: in vitro ADME; settings: pH 7.4; Mouse Plasma
recorded-endpoint: half-life at 1 µM

# query: half-life at 1 µM of entry C[C@@H]1[C@H](O)[C@@H](C)/C=C/C=C/C=C/C=C/C=C/C=C/C=C/[C@H](OC2O[C@H](C)[C@@H](O)[C@H](N)[C@@H]2O)C[C@@H]2O[C@](O)(C[C@@H](O)C[C@@H](O)[C@H](O)CC[C@@H](O)C[C@@H](O)CC(=O)O[C@H]1C)C[C@H](O)[C@H]2C(=O)O (stereo partly shown) [AmB, Amphotericin B]
> 4.82 h

====

Property: Half Life; scope: individual compounds
experiment: Plasma Stability; format: in vitro ADME; conditions: Human Plasma

Below are worked cases with known answers.
{"compound": "CC1C=CC=CC=CC=CC=CC=CC=CC(OC2OC(C)C(O)C(N)C2O)CC2OC(O)(CC(O)CC(O)C(O)CCC(O)CC(O)CC(=O)OC(C)C(C)C1O)CC(O)C2C(=O)NCCF (stereo not drawn) [Compound BM]", "recorded-endpoint": "Half Life", "meas-value": ">289; >289 min"}
{"compound": "C[C@@H]1[C@H](O)[C@@H](C)/C=C/C=C/C=C/C=C/C=C/C=C/C=C/[C@H](OC2O[C@H](C)[C@@H](O)[C@H](N)[C@@H]2O)C[C@@H]2O[C@](O)(C[C@@H](O)C[C@@H](O)[C@H](O)CC[C@@H](O)C[C@@H](O)CC(=O)O[C@H]1C)C[C@H](O)[C@H]2C(=O)O (stereo partly drawn) [AmB, Amphotericin B]", "recorded-endpoint": "Half Life", "meas-value": ">289; >289 min"}
{"compound": "CC1C=CC=CC=CC=CC=CC=CC=CC(OC2OC(C)C(O)C(N)C2O)CC2OC(O)(CC(O)CC(O)C(O)CCC(O)CC(O)CC(=O)OC(C)C(C)C1O)CC(O)C2C(=O)NCCN (stereo not drawn) [AM]", "recorded-endpoint": "Half Life", "meas-value": ">289 min"}
{"compound": "COC(=O)C(Cc1c[nH]cn1)NC(=O)C1C(O)CC2(O)CC(O)CC(O)C(O)CCC(O)CC(O)CC(=O)OC(C)C(C)C(O)C(C)C=CC=CC=CC=CC=CC=CC=CC(OC3OC(C)C(O)C(N)C3O)CC1O2 (stereo not drawn) [AL]", "recorded-endpoint": "Half Life", "meas-value": ">289 min"}
{"compound": "CC1C=CC=CC=CC=CC=CC=CC=CC(OC2OC(C)C(O)C(N)C2O)CC2OC(O)(CC(O)CC(O)C(O)CCC(O)CC(O)CC(=O)OC(C)C(C)C1O)CC(O)C2C(=O)NCCO (stereo not drawn) [Compound AA]", "recorded-endpoint": "Half Life", "meas-value": ">289 min"}

Now let's try a different one.
Give its Half Life value. Item: CNC(=O)C1C(O)CC2(O)CC(O)CC(O)C(O)CCC(O)CC(O)CC(=O)OC(C)C(C)C(O)C(C)C=CC=CC=CC=CC=CC=CC=CC(OC3OC(C)C(O)C(N)C3O)CC1O2 (stereo not drawn) [AN]
>289 min

====

molecular target: CYP2C9 (Homo sapiens, UniProt P11712); assay: CYP Inhibition; details: human
Sequence (P11712 whole entry): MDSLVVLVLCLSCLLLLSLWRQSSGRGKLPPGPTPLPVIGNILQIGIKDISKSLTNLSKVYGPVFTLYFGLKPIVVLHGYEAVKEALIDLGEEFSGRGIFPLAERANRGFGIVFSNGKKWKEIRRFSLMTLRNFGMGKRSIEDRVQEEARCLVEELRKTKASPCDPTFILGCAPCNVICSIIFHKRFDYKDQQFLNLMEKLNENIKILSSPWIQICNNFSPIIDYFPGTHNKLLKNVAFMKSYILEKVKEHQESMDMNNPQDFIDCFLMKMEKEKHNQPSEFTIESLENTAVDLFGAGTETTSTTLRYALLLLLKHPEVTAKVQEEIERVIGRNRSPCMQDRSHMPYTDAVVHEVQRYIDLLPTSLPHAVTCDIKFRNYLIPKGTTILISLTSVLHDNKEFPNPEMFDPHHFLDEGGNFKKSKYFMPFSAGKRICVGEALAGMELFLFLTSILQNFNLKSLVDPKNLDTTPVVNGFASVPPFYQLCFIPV
recorded-endpoint: inhibition at 10 min, 3 µM
Write down the value, and be sure its unit follows.

# query: inhibition at 10 min, 3 µM of entry Nc1ccc(S(=O)(=O)Nc2ccnn2-c2ccccc2)cc1 [Sulfaphenazole, reference compound]
69.7%

====

Test: Plasma Stability
Format: in vitro ADME
Conditions: pH 7.4; Rat Plasma
Method: Plasma Stability: Procedure: […] Plasma was warmed to 37° C. prior to the experiment and centrifuged for 5 mins at 4000 rpm. […] Each time point was monitored in triplicate (0, 10, 30, 60 and 120 min). 4 uL/well aliquot of the working solution was mixed to the blank plasma and incubated at 37° C. AT each time point samples were quenched with ACN stop solution containing 200 ng/ml Tolbutamide & 200 ng/ml Labetalol at 1:3 ratio and mix well on shaker for 10 min then centrifuge at 4000 rpm for 15 min. […]
recorded-endpoint: half-life at 1 µM

Value lookup for half-life at 1 µM; key = C[C@@H]1[C@H](O)[C@@H](C)/C=C/C=C/C=C/C=C/C=C/C=C/C=C/[C@H](OC2O[C@H](C)[C@@H](O)[C@H](N)[C@@H]2O)C[C@@H]2O[C@](O)(C[C@@H](O)C[C@@H](O)[C@H](O)CC[C@@H](O)C[C@@H](O)CC(=O)O[C@H]1C)C[C@H](O)[C@H]2C(=O)O (stereo partly shown)
> 4.82 h

====

test: Liver Microsome stability (In Vitro Metabolism); type: in vitro ADME; details: Mouse liver microsomes
recorded-endpoint: CLint scaled at 1 µM

Requested read-out: CLint scaled at 1 µM. Entry: C[C@@H]1[C@H](O)[C@@H](C)/C=C/C=C/C=C/C=C/C=C/C=C/C=C/[C@H](OC2O[C@H](C)[C@@H](O)[C@H](N)[C@@H]2O)C[C@@H]2O[C@](O)(C[C@@H](O)C[C@@H](O)[C@H](O)CC[C@@H](O)C[C@@H](O)CC(=O)O[C@H]1C)C[C@H](O)[C@H]2C(=O)O (stereo partly shown) [AmB, Amphotericin B]
< 38 mL/min/kg

====

tested on: C. tropicalis; experiment: MIC; type: cell-based
# if measured MIC C. tropicalis < 0.5 µM: Fulfilled  # else: Not fulfilled

// below: answered compounds
{"compound": "CC1C=CC=CC=CC=CC=CC=CC=CC(OC2OC(C)C(O)C(N)C2O)CC2OC(O)(CC(O)CC(O)C(O)CCC(O)CC(O)CC(=O)OC(C)C(C)C1O)CC(O)C2C(=O)NC1CCCCCCCCCCC1 (centres unmarked) [AR12]", "category-label": "Not fulfilled"}
{"compound": "CC1C=CC=CC=CC=CC=CC=CC=CC(OC2OC(C)C(O)C(N)C2O)CC2OC(O)(CC(O)CC(O)C(O)CCC(O)CC(O)CC(=O)OC(C)C(C)C1O)CC(O)C2C(=O)NCC(C)(C)O (centres unmarked) [AI]", "category-label": "Fulfilled"}
{"compound": "CC1C=CC=CC=CC=CC=CC=CC=CC(OC2OC(C)C(O)C(N)C2O)CC2OC(O)(CC(O)CC(O)C(O)CCC(O)CC(O)CC(=O)OC(C)C(C)C1O)CC(O)C2C(=O)NCCF (centres unmarked) [Compound BM]", "category-label": "Not fulfilled"}

Consider now this further compound.
Given the entry CC1C=CC=CC=CC=CC=CC=CC=CC(OC2OC(C)C(O)C(N)C2O)CC2OC(O)(CC(O)CC(O)C(O)CCC(O)CC(O)CC(=O)OC(C)C(C)C1O)CC(O)C2C(=O)NCCO (centres unmarked) [Compound AA] , would its reported MIC C. tropicalis be below 0.5 µM?
Fulfilled

====

test: Liver Microsome stability (In Vitro Metabolism); format: in vitro ADME; conditions: Dog liver microsomes
recorded-endpoint: Remaining (T = 60 min) (%)
Give the value in % but do not write % after it.

See these solved cases before continuing.
{"molecule": "CC1C=CC=CC=CC=CC=CC=CC=CC(OC2OC(C)C(O)C(N)C2O)CC2OC(O)(CC(O)CC(O)C(O)CCC(O)CC(O)CC(=O)OC(C)C(C)C1O)CC(O)C2C(=O)NCCO (stereo not drawn) [Compound BA]", "Remaining (T = 60 min) [%]": 111}
{"molecule": "CC1C=CC=CC=CC=CC=CC=CC=CC(OC2OC(C)C(O)C(N)C2O)CC2OC(O)(CC(O)CC(O)C(O)CCC(O)CC(O)CC(=O)OC(C)C(C)C1O)CC(O)C2C(=O)NCCN (stereo not drawn)", "Remaining (T = 60 min) [%]": 107}
{"molecule": "C[C@@H]1[C@H](O)[C@@H](C)/C=C/C=C/C=C/C=C/C=C/C=C/C=C/[C@H](OC2O[C@H](C)[C@@H](O)[C@H](N)[C@@H]2O)C[C@@H]2O[C@](O)(C[C@@H](O)C[C@@H](O)[C@H](O)CC[C@@H](O)C[C@@H](O)CC(=O)O[C@H]1C)C[C@H](O)[C@H]2C(=O)O (stereo partly drawn)", "Remaining (T = 60 min) [%]": 106}

Which Remaining (T = 60 min) is listed for CC1C=CC=CC=CC=CC=CC=CC=CC(OC2OC(C)C(O)C(N)C2O)CC2OC(O)(CC(O)CC(O)C(O)CCC(O)CC(O)CC(=O)OC(C)C(C)C1O)CC(O)C2C(=O)NCCO (stereo not drawn) [Compound AA] ?
88.5

For the molecule COC(=O)C(Cc1c[nH]cn1)NC(=O)C1C(O)CC2(O)CC(O)CC(O)C(O)CCC(O)CC(O)CC(=O)OC(C)C(C)C(O)C(C)C=CC=CC=CC=CC=CC=CC=CC(OC3OC(C)C(O)C(N)C3O)CC1O2 (stereo not drawn) , what Remaining (T = 60 min) is on record?
101

Can you share its Remaining (T = 60 min)? I mean this molecule: CNC(=O)C1C(O)CC2(O)CC(O)CC(O)C(O)CCC(O)CC(O)CC(=O)OC(C)C(C)C(O)C(C)C=CC=CC=CC=CC=CC=CC=CC(OC3OC(C)C(O)C(N)C3O)CC1O2 (stereo not drawn)
92.4
